Tested on: Fibroblast
Method Summary: Multiplex assay against human fibroblast
Type: toxicity, cell-based
Condition Description: 12 h, 10 µM, compound concentration 10 uM, replicate 1
This section presents compounds with their documented Total Cell Count values.
Property Measured: Total Cell Count

>>> df
                              smiles_string  property_measured  readout_value
0  c1cn2cc(-c3ccc4cn[nH]c4c3)nc(Nc3ccc(N4CCOCC4)cc3)c2n1   Total Cell Count           1163
1  Cc1nc(-c2cn3c(n2)-c2ccc(-c4cnn(C(C)(C)C(N)=O)c4)cc2OCC3)n(C(C)C)n1   Total Cell Count            188
2  Cc1cc(C)cc(-c2cnc3cc(Cl)c(-c4cccc(O)c4)cc3c2OCCCN)c1   Total Cell Count            135
3  CC[C@H](C)C(=O)O[C@H]1C[C@@H](C)C=C2C=C[C@H](C)[C@H](CC[C@@H]3C[C@@H](O)CC(=O)O3)[C@H]21   Total Cell Count            115
